Data origin: patent US20050282743A1

Listing of recorded Classification by entry.
# Assayed system: T1, GST-KIAA0807(S) PDZ domain 1 (Homo sapiens (Human)), Q6P0Q8
# T1 chain: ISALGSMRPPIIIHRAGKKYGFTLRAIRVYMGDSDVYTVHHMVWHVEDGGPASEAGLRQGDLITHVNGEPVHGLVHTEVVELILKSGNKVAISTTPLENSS
# Method summary: G' assay; also: key of the grades not given here
Only the number, expressed in A450 class, is required.

Consider the following illustrative entries.
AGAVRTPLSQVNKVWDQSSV (modifications not checked) [CITRON protein]: 4
TALRIKKTLAKMVESQDVKI (modifications not checked) [bone morphogenetic protein receptor]: 1
SPQPDSTDNDDYDDISAA (modifications not checked) [CD6]: 1
KPQIAALKEETEEEVQDTRL (modifications not checked) [CFTCR (cystic fibrosis transmembrane conductance regulator)]: 2
QQYQQRQSVIFHKRAPEQAL (modifications not checked) [muscarinic Ach receptor M4]: 1

// query Return reported Classification; argument: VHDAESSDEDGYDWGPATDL (modifications not checked) [zona occludens 3 (ZO-3) PL peptide]
// result 5
